# assayRemarks: chemical genetic growth profiling, strain panel (AID 1159580);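 also: tested at 20 µM; growth read once vehicle control cultures reached saturation at 30 °C; 1 = growth at the plate median or of vehicle wells; lower values mean less growth of the strain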
# conditionNotes: S. cerevisiae deletion strains, growth OD, locus YKL009W, strain mrt4, stronger effect = lower value
About 2,000 (36%) of roughly 5,500 compounds were called active. Inconclusive results (about 18%) are left out. The list shows a part of the results.

# compound, normalized growth
rows = [
    ("C[C@@H]1OC(O[C@H]2[C@H](O)[C@@H](O)[C@H](OC[C@H]3O[C@@H](OC(=O)[C@]45CCC(C)(C)CC4C4=CCC6[C@@]7(C)CC[C@H](OC8OC[C@H](O)[C@H](O)[C@H]8OC8O[C@@H](C)[C@H](O)[C@@H](O)[C@H]8O)[C@@](C)(CO)C7CC[C@@]6(C)[C@]4(C)CC5)[C@H](O)[C@@H](O)[C@@H]3O)O[C@@H]2CO)[C@H](O)[C@H](O)[C@H]1O (stereo partly specified)", "0.968 (inactive)"),
    ("C#C[C@]1(O)CCC2C3CCC4=C(CCC(=O)C4)C3CC[C@@]21C (stereo partly specified)", "0.974 (inactive)"),
    ("NNC(=O)c1ccncc1", "0.98 (inactive)"),
    ("OC(CCN1CCCCC1)(c1ccccc1)C1CCCCC1 (stereo unspecified)", "0.999 (inactive)"),
    ("N=C(N)c1ccc(OCCCCCOc2ccc(C(=N)N)cc2)cc1", "0.942 (inactive)"),
    ("CC(=O)OC1CC(OC(C)=O)C2(C)C(CC(OC(C)=O)C3(C)C4=CC(=O)OC(=O)C4(C)CCC32)C1(C)C (stereo unspecified)", "0.992 (inactive)"),
    ("CC1C(=O)OC2C1CCC1(C)C=CC(=O)C3(C)OC213 (stereo unspecified)", "1.02 (inactive)"),
    ("C[C@]12CCC(=O)C=C1CCC1C2[C@@H](O)C[C@@]2(C)C1CC[C@]2(O)C(=O)CO (stereo partly specified)", "0.992 (inactive)"),
    ("CC(=O)O[C@H]1CC[C@@]2(C)C(CC[C@]3(C)C2CC=C2C4CC(C)(C)CC[C@]4(C)CC[C@]23C)C1(C)C (stereo partly specified)", "1 (inactive)"),
    ("CC(=O)O[C@@H]1CC[C@@]2(C)C(CC[C@]3(C)C2CC=C2C4CC(C)(C)CC[C@]4(C(=O)O)CC[C@]23C)C1(C)C (stereo partly specified)", "1.03 (inactive)"),
    ("Nc1c2ccccc2nc2ccccc12", "0.909 (inactive)"),
    ("OC(CCN1CCCC1)(c1ccccc1)C1CCCCC1 (stereo unspecified)", "0.977 (inactive)"),
    ("N[C@H](C(=O)O)[C@@H]1CC(Cl)=NO1", "0.381 (active)"),
    ("CC(=O)O[C@H]1CC[C@@]2(C)C(CC[C@]3(C)C2C(=O)C=C2C4[C@@H](C)[C@H](C)CC[C@]4(C(=O)O)CC[C@]23C)C1(C)C (stereo partly specified)", "1.52 [resistant] (active)"),
    ("CC1(C)CC[C@]2(C)CC[C@]3(C)C(=CCC4[C@@]5(C)CC[C@H](O)C(C)(C)C5CC[C@]43C)C2C1 (stereo partly specified)", "0.988 (inactive)"),
    ("CC(=O)NC(C(=O)O)C(C)(C)SN=O (stereo unspecified)", "0.957 (inactive)"),
    ("C[C@@H]1CC[C@H]2[C@@H](C)C(=O)O[C@@H]3O[C@@]4(C)CC[C@@H]1[C@]32OO4", "0.986 (inactive)"),
    ("NC12CC3CC(CC(C3)C1)C2", "1.02 (inactive)"),
    ("CC(C)(Oc1ccc(CCNC(=O)c2ccc(Cl)cc2)cc1)C(=O)O", "1.02 (inactive)"),
    ("COc1ccc2[nH]cc(CCN)c2c1", "0.94 (inactive)"),
    ("C[C@@H]1CC[C@H]2[C@@H](C)C(O)O[C@@H]3O[C@@]4(C)CC[C@@H]1[C@]32OO4 (stereo partly specified)", "0.649 (active)"),
]

====

# assayRemarks: chemical genetic growth profiling, strain panel (AID 1159580)
# conditionNotes: S. cerevisiae deletion strains, growth OD, locus YLR262C, strain YPT6 (second series), stronger effect = lower value
Screen size: about 5,500 compounds; about 2,000 (36%) were called active. Not shown: some 18% with an inconclusive outcome. The list shows a part of the results.

# molecule, normalized growth
rows = [
    ("O=c1[nH]cc(F)c(=O)[nH]1", 0.63),
    ("O=C(O)CC(O)(CC(=O)O)C(=O)O", 1.02),
    ("CCCCCCCCCCCCCCC(C(=O)O)C(O)(CC(=O)OC)C(=O)O (configuration not stated)", 0.986),
    ("O=c1oc2cc(O)ccc2s1", 0.965),
    ("Nc1ccccc1C(=O)CC(N)C(=O)O (configuration not stated)", 1),
    ("Cc1ccc(S(=O)(=O)NC(=O)NN2CC3CCCC3C2)cc1 (configuration not stated)", 0.927),
    ("CCCCCCCCCCCC[C@H](C(=O)O)[C@@H](C)C(=O)O", 0.934),
]

====

Documented normalized growth across a set of compounds
# assayRemarks: chemical genetic growth profiling, strain panel (AID 1159580);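 also: tested at 20 µM; growth read once vehicle control cultures reached saturation at 30 °C; 1 = growth at the plate median or of vehicle wells; lower values mean less growth of the strain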
# conditionNotes: S. cerevisiae deletion strains, growth OD, locus YJL166W, strain qcr8, stronger effect = lower value
Screen size: about 5,500 compounds; about 2,000 (36%) were called active. Roughly 18% stayed inconclusive and do not appear here. The list shows a part of the results.

# compound, normalized growth
rows = [
    ("CC(=O)/C=C\\[C@@H]1[C@@]2(C)CCCC(C)(C)C2CC[C@@]1(C)O (some centres not stated)", 0.982),
    ("Nc1ccc(S(=O)(=O)Nc2cnc3ccccc3n2)cc1", 1.02),
    ("O=c1ccc2ccc(O)cc2o1", 1),
    ("Cc1cc(C(C)(C)C)c(O)c(C(C)(C)C)c1", 0.951),
    ("CCC(C)C(NC)C(=O)O (configuration not stated)", 1.02),
    ("NCCC(=O)N[C@@H](Cc1cnc[nH]1)C(=O)O", 1.01),
    ("O=c1oc2cc(O)ccc2s1", 0.99),
    ("Nc1ccccc1C(=O)CC(N)C(=O)O (configuration not stated)", 0.991),
    ("CCCOc1ccccc1-c1nc2n[nH]nc2c(=O)[nH]1", 1.01),
    ("C/C=C1\\[C@H]2C=C(C)C[C@]1(N)c1ccc(=O)[nH]c1C2", 1.02),
    ("Cc1ccc(-c2cc(C(F)(F)F)nn2-c2ccc(S(N)(=O)=O)cc2)cc1", 1.01),
    ("N#CC(O[C@@H]1O[C@H](CO[C@@H]2O[C@H](CO)[C@@H](O)[C@H](O)[C@H]2O)[C@@H](O)[C@H](O)[C@H]1O)c1ccccc1 (some centres not stated)", 0.982),
]

====

# assayRemarks: chemical genetic growth profiling, strain panel (AID 1159580);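 also: tested at 20 µM; growth read once vehicle control cultures reached saturation at 30 °C; 1 = growth at the plate median or of vehicle wells; lower values mean less growth of the strain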
# conditionNotes: S. cerevisiae deletion strains, growth OD, locus YGL078C, strain dbp3, stronger effect = lower value
The campaign covered roughly 5,500 compounds. About 2,000 (36%) were called active. Another 18% or so got no clear call; they are omitted. The list shows a part of the results.

# compound, normalized growth
data = [
    ("CC(C)=CCCC1(C)C=Cc2c(O)c3c(c(CC=C(C)C)c2O1)OC12C(=CC4CC1C(C)(C)OC2(C/C=C(/C)C(=O)O)C4=O)C3=O (stereo not drawn)", 0.965),
    ("Cc1ccc(-c2cc(C(F)(F)F)nn2-c2ccc(S(N)(=O)=O)cc2)cc1", 0.996),
    ("O=C(COc1ccc(Cl)cc1)N1CCN(Cc2ccc3c(c2)OCO3)CC1", 1),
    ("CC(C)=CCCC1(C)C=Cc2c(O)c3c(c(CC=C(C)C)c2O1)OC12C(=CCCC1C(C)(C)O[C@@]2(C/C=C(\\C)C(=O)O)C(=O)O)C3=O (stereo partly drawn)", 0.998),
    ("CC(=O)/C=C\\[C@@H]1[C@@]2(C)CCCC(C)(C)C2CC[C@@]1(C)O (stereo partly drawn)", 0.968),
    ("COC(=O)/C(C)=C\\CC12OC(C)(C)C3CC(C=C4C(=O)c5c(O)c6c(c(CCC(C)(C)Cl)c5OC431)OC1(C)CCC(=C(C)C)C6C1)C2=O (stereo not drawn)", 0.994),
    ("Cc1ccnc(NS(=O)(=O)c2ccc(N)cc2)n1", 1.01),
    ("C/C=C1\\[C@H]2C=C(C)C[C@]1(N)c1ccc(=O)[nH]c1C2", 1.01),
]

====

# assayRemarks: chemical genetic growth profiling, strain panel (AID 1159580);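 also: tested at 20 µM; growth read once vehicle control cultures reached saturation at 30 °C; 1 = growth at the plate median or of vehicle wells; lower values mean less growth of the strain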
# conditionNotes: S. cerevisiae deletion strains, growth OD, locus YMR078C, strain ctf18, stronger effect = lower value
About 2,000 (36%) of roughly 5,500 compounds were called active. Not shown: some 18% with an inconclusive outcome. The list shows a part of the results.

# molecule, normalized growth
records = [
    ("CC1C(=O)OC2C1CCC1(C)C=CC(=O)C3(C)OC213 (centres undefined)", 1),
    ("CC1(C)CC[C@]2(C(=O)O)CC[C@]3(C)C(=CCC4[C@@]5(C)CC[C@@H](O)C(C)(C)C5CC[C@]43C)C2C1 (some centres undefined)", 1.02),
    ("CCOP(=S)(OCC)Oc1cc(C)nc(C(C)C)n1", 0.991),
    ("C[C@@H]1CC[C@H]2[C@@H](C)C(O)O[C@@H]3O[C@@]4(C)CC[C@@H]1[C@]32OO4 (some centres undefined)", 0.401),
    ("C[C@@H]1C(=O)O[C@H]2[C@H]1CC[C@@]1(C)C=CC(=O)[C@@]3(C)O[C@@]213", 1.02),
    ("CCCCCCCCCCCC[C@H](C(=O)O)[C@@H](C)C(=O)O", 0.995),
    ("CC1(C)CC[C@]2(C)CC[C@]3(C)C(=CCC4[C@@]5(C)CC[C@H](O)C(C)(C)C5CC[C@]43C)C2C1 (some centres undefined)", 0.994),
    ("C[C@@H]1CC[C@]2(C(=O)O)CC[C@]3(C)C(=CCC4[C@@]5(C)CC[C@H](O)C(C)(C)C5CC[C@]43C)C2[C@H]1C (some centres undefined)", 0.976),
    ("CCCOc1ccccc1-c1nc2n[nH]nc2c(=O)[nH]1", 1.01),
]
